The values you see were collected from PubChem BioAssay (NCI).

System: SK-OV-3 ovarian
Assay: NCI-60 one-dose screen, 48 h
Conditions: 10 µM unless noted
The panel holds about 83,000 compounds, 20% with a hit somewhere; the sample as a whole holds those more often. Activity calls are given as the source filed them. The calls were made as follows: active = growth percent below 10; inactive = the rest.
Classes used: active, inactive

1. Cc1oc(-c2ccc(Cl)cc2)nc1C1=NN(C(=O)c2ccncc2)C(c2ccccc2)C1 (stereo unspecified) = inactive
2. Nc1ccc(Br)cc1C(F)(F)F = inactive
3. CCN(CC)CCCNc1cc(OC)c(OC)c2cccnc12 = inactive
4. CC1(C)CC[C@]23CC[C@]4(C)[C@H](CC[C@@H]5[C@@]6(C)C/C(=C/O)C(=O)C(C)(C)[C@@H]6CC[C@]54C)[C@H]2[C@H]1OC3 = inactive
5. O=[N+]([O-])c1c(O)c(Cl)cc(Cl)c1Cl = inactive
6. COC(=O)Cn1c2c(c3c(OC)cccc31)C(=O)c1ccccc1-2 = inactive
7. C=CC(CC(c1ccccc1)(c1ccccc1)c1ccccc1)N(CC)CC (stereo unspecified) = inactive
8. Cc1nn(-c2ccc([N+](=O)[O-])cc2)c2ncnc(N/N=C/c3ccccc3O)c12 = active
9. O=C(NCCN1CCOCC1)OCc1ccc2c(Cl)cc(Cl)c(O)c2n1 = inactive
10. CCOC(=O)C/C(=N\Nc1cc(=O)[nH]c2ccc(C)cc12)C(=O)OCC = inactive
11. N#Cc1c(-c2cccc(Cl)c2)cc(-c2cccnc2)[nH]c1=O = inactive
12. COc1ccc(CN2C(=O)OC(C)(COC(C)=O)C2=O)cc1 (stereo unspecified) = inactive
13. Nc1nc(C(=O)N/N=C/c2ccc(F)cc2)nn1-c1ccc(S(N)(=O)=O)cc1 = inactive
14. Cc1cc(Cl)nc(N2CCN(CCNc3ccnc4cc(Cl)ccc34)CC2)n1 = inactive
15. C[N+]1=C(/C=C/c2ccccc2Cl)C(C)(C)c2ccccc21 = inactive
16. C/C=C1/CN(CCCCC)CC[C@H]1C(=O)c1cc2ccccc2[nH]1 = inactive
17. Nc1nc(N)c2c(n1)NC(c1cccc(Nc3ccnc4cc(C(F)(F)F)ccc34)c1)CC(c1ccc3c(c1)OCO3)=N2 (stereo unspecified) = inactive
18. Cc1[nH]n(-c2cccc(Cl)c2)c(=O)c1/C=C1\C=c2ccccc2=CC1=O = inactive
19. CSc1ccc2c3c(n(C[C@H](O)CO)c(=O)c2c1)-c1ccccc1C3=O = inactive
20. Cc1ccc(NC(=O)c2sc3nc(C)c(C(O)c4ccccc4)cc3c2N)cc1 (stereo unspecified) = inactive
21. CN1C(=O)/C(=C/c2ccc(C(=O)Nc3ncc(Cc4cccc(C(F)(F)F)c4)s3)cc2)SC1=S = inactive
